# protocol-text: chemical genetic growth profiling, strain panel (AID 1159580);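 note: tested at 20 µM; growth read once vehicle control cultures reached saturation at 30 °C; 1 = growth at the plate median or of vehicle wells; lower values mean less growth of the strain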
# assay-context: S. cerevisiae deletion strains, growth OD, locus YAL030W, strain snc1, stronger effect = lower value
In all, about 5,500 compounds went through this assay and about 2,000 (36%) were called active. Another 18% or so got no clear call; they are omitted. Some of the results follow.
readout-kind: normalized growth

Solved entries (count: 2):
* CN[C@H]1CC[C@@H](c2ccc(Cl)c(Cl)c2)c2ccccc21 | 0.985 (inactive)
* C=CCSSSCC=C | 0.989 (inactive)

Query :: Name the recorded normalized growth for NCCCN .
Result :: 0.989 (inactive)

Query :: Give the measured normalized growth of COC1CC(O[C@H]2CC[C@]3(C=O)C4CC[C@]5(C)C(C6=CC(=O)OC6)CC[C@]5(O)C4CC[C@]3(O)C2)OC(C)C1O (stereo partly drawn) .
Result :: 0.978 (inactive)

Query :: Request the reported normalized growth associated with Oc1ccc2c3c1OC1[C@@H](O)CC[C@@]4(O)[C@@H](C2)N(CC2CCC2)CC[C@]314 (stereo partly drawn)
Result :: 0.981 (inactive)

Query :: Consider the molecule shown here: COC(=O)N/N=C\c1c[n+]([O-])c2ccccc2[n+]1[O-] What is its recorded normalized growth?
Result :: 0.982 (inactive)

Query :: Query (molecule): CO[C@H]1[C@@H](O)[C@@H](C)O[C@H](O[C@H]2CCC3(C)C4CCC5(C)[C@@H](C6=CC(=O)OC6)CC[C@]5(O)[C@@H]4CC[C@]3(O)C2)[C@@H]1O (stereo partly drawn) ; field requested: normalized growth
Result :: 1.03 (inactive)

Query :: Look at this molecule and give its reported normalized growth. COC(=O)C(N)CS (stereo not drawn)
Result :: 0.993 (inactive)

Query :: Form field: reported normalized growth of COC1=CC(C)[C@@H]2C[C@H]3OC(=O)C[C@H]4C(C)=C(OC)C(=O)C([C@@]34C)[C@@]2(C)C1=O (stereo partly drawn)
Result :: 0.988 (inactive)

Query :: Recorded normalized growth for CC1(C)O[C@@H]2CC3C4C[C@H](F)C5=CC(=O)CC[C@]5(C)C4[C@@H](O)C[C@]3(C)[C@]2(C(=O)CO)O1 (stereo partly drawn) , please?
Result :: 1.01 (inactive)

Query :: Report normalized growth for Nc1nc(/C(=C/CC(=O)O)C(=O)N[C@@H]2C(=O)N3C(C(=O)O)=CCS[C@H]23)cs1 please.
Result :: 1.02 (inactive)
